tested on: EfPiwi piRISC loaded with L1MC piRNA (26 nt); assay: pre-steady-state target cleavage rate (min^-1); auxiliary factor: none (no Gtsf1); guide: L1MC piRNA 5'p-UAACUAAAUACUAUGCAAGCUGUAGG; higher = faster piRNA-guided slicing of the target
# maps each entry to its pre-steady-state target cleavage rate

Worked set:
chain | pre-steady-state target cleavage rate
UCCUGGAUGUCGAUCCAUAGUAUUUACUUA | < 0.0001
UCCUGGAUGUCGAUGCAUACUUUUUAGUUA | < 0.0001
UCCUGCUACAGCUUGCAUAGAAUUUUCAAA | < 0.0001
UCCUGGAUGUCGAAGCAUAGUAUAAUCAAA [g8:g16:cont:t1A] | < 0.0001
UCCUGGAUGAGCUUGCAUAGUCUUUAGUUA | 0.0128
UCCUGGAUCAGCUUGCAUAGUAUAUAGUUA | 0.0117

Report pre-steady-state target cleavage rate for "UCCUGGAUGUCGAACGUUAGUAUUUAGAUUA"
< 0.0001

###

test system: MILI (PIWIL2) piRISC loaded with piRNA #1 (26 nt); experiment: pre-steady-state target cleavage rate (min^-1); guide: piRNA #1 5'p-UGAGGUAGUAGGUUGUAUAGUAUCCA; higher = faster piRNA-guided slicing of the target; details: auxiliary factor: 500 nM mouse GTSF1;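 further: 1 nM active piRISC with 0.1 nM target library at 33 °C single turnover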
assay_readout: pre-steady-state target cleavage rate
// print number alone

chain | pre-steady-state target cleavage rate
GGAGUGGAUACUAUAGUUCCUACUACCUCA | 0.169
GGAGUGGAUUCUAUACAACCUACAACCUCA | 0.0777
GGAGACCUUACUAUACAAGCUACUACCUGA | 0.158
GGAGACGAUACUAUACAUCCUACUUCCUCA | 0.157
GGAGAGGAUACUAAACAAGCUACUACCUCA | 0.165

Report pre-steady-state target cleavage rate for "GGAGACCUUAGUAUACUACCUACUACCUCA"
0.0896

Report pre-steady-state target cleavage rate for "GGAGACGAUACUAUACAACCUACUACCUAA"
0.153

###

# maps each entry to its pre-steady-state target cleavage rate
test system: MILI (PIWIL2) piRISC loaded with piRNA #1 (26 nt); experiment: pre-steady-state target cleavage rate (min^-1); guide: piRNA #1 5'p-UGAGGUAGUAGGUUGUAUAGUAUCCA; higher = faster piRNA-guided slicing of the target; conditions: auxiliary factor: 500 nM mouse GTSF1;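 further: 1 nM active piRISC with 0.1 nM target library at 33 °C single turnover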
// print number alone

Worked set:
chain | endpoint_result
GGAGACGAUACAAUACAACCUACUACCUGA | 0.116
GGAGACCUAUGAUUACAACCGUACUACCUCA | 0.00334
GGAGACCUAUGUAUACAACCUAUUACCUCA | 0.0697

Now, please, on to the next sequence.
Report pre-steady-state target cleavage rate for "GGAGACCUAUGAUUACAACCUCACUACCUCA"
0.00291

###

system: EfPiwi piRISC loaded with piRNA #1 (26 nt); test: pre-steady-state target cleavage rate (min^-1); auxiliary factor: 500 nM Ephydatia muelleri Gtsf1; guide: piRNA #1 5'p-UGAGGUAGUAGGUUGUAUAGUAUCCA; MIWI and MILI are mouse PIWI proteins and EfPiwi is from a freshwater sponge; tags in brackets are library labels; higher = faster piRNA-guided slicing of the target
assay_readout: pre-steady-state target cleavage rate
// print number alone

Worked set:
chain | assay_readout | endpoint_result
GGAGACCAUACUAUACAAACUACUACCUCA | pre-steady-state target cleavage rate | 0.00853
GGAGUGGAUACUAUACAACCUACUAUCCUCA | pre-steady-state target cleavage rate | 0.00685
GGAGAGGAUACUAUUCAACCUACUAGCUCA | pre-steady-state target cleavage rate | 0.00239
GGAGACCAUACUUAACAACCUACUACCUCA | pre-steady-state target cleavage rate | 0.00395
GGAGUGGAUACUAUACUACCUACAACCUCA | pre-steady-state target cleavage rate | 0.00209

Report pre-steady-state target cleavage rate for "GGAGUGGAUACUAUACAACCCUACUACCUCA"
0.00375

Report pre-steady-state target cleavage rate for "GGAGUGGAUACUAUACAUCCUACUACGUCA"
0.0038

Report pre-steady-state target cleavage rate for "GGAGACCAUACUAUUCAACCUACUAGCUCA"
0.00459

Report pre-steady-state target cleavage rate for "GGAGACGAUACUAUACAACUCUACUACCUCA"
0.00452

Report pre-steady-state target cleavage rate for "GGAGUGGAUACUAUACAAGCUACUACGUCA"
0.00405

Report pre-steady-state target cleavage rate for "GGAGAGGAUACUAUACAUCCAACUACCUCA"
0.00419

Report pre-steady-state target cleavage rate for "GGAGACGAUGACUAUACAACCUACUACCUCA"
0.11

Report pre-steady-state target cleavage rate for "GGAGACCAUACUAUACAACCUUCUACGUCA"
0.00387

Report pre-steady-state target cleavage rate for "GGAGAGGAUACUAUUCAACCUACUACGUCA"
0.00309

Report pre-steady-state target cleavage rate for "GGAGAGGAUACUAUACGACCUACUACCUCA"
0.117
